- Protocol description: Titration of progesterone/steroid content of nanoparticles by HPLC
- Format: physicochemical
- Study conditions: PIBCA/HPBCD nanoparticles (10 mg/ml HPβCD); average of 3 values
Measure: Drug load (mg/g)
One number for each entry, in mg/g.

Example entries and their recorded answers appear below.
{"Molecule": "C[C@]12C=CC(=O)C=C1CC[C@@H]1[C@@H]2[C@@H](O)C[C@@]2(C)[C@H]1CC[C@]2(O)C(=O)CO", "Endpoint value": 15.5}
{"Molecule": "CC(=O)S[C@@H]1CC2=CC(=O)CC[C@]2(C)[C@H]2CC[C@@]3(C)[C@@H](CC[C@@]34CCC(=O)O4)[C@H]12", "Endpoint value": 53.0}
{"Molecule": "CC(=O)[C@H]1CC[C@H]2[C@@H]3CCC4=CC(=O)CC[C@]4(C)[C@H]3CC[C@]12C", "Endpoint value": 24.0}
{"Molecule": "C[C@]12CCC(=O)C=C1CC[C@@H]1[C@@H]2[C@@H](O)C[C@@]2(C)[C@H]1CC[C@]2(O)C(=O)CO [Hydrocortisone, hydrocortisone]", "Endpoint value": 15.3}
{"Molecule": "CC(=O)O[C@]1(C(C)=O)CC[C@H]2[C@@H]3C=C(C)C4=CC(=O)CC[C@]4(C)[C@H]3CC[C@@]21C [Megestrolacetate, megestrol acetate]", "Endpoint value": 1.4}

Quick batch: Drug load for everything below.
1. C#C[C@]1(O)CC[C@H]2[C@@H]3CCC4=Cc5oncc5C[C@]4(C)[C@H]3CC[C@@]21C
2. C[C@]12CC[C@H]3[C@@H](CCC4=CC(=O)CC[C@@]43C)[C@@H]1CC[C@@H]2O

Result block:
1. 11.2
2. 19.5
